experimental.system: Ubiquitin-activating enzyme e1, putative (Leishmania donovani (strain BPK282A1)) (UniProt E9BSI1)
Sequence (whole entry): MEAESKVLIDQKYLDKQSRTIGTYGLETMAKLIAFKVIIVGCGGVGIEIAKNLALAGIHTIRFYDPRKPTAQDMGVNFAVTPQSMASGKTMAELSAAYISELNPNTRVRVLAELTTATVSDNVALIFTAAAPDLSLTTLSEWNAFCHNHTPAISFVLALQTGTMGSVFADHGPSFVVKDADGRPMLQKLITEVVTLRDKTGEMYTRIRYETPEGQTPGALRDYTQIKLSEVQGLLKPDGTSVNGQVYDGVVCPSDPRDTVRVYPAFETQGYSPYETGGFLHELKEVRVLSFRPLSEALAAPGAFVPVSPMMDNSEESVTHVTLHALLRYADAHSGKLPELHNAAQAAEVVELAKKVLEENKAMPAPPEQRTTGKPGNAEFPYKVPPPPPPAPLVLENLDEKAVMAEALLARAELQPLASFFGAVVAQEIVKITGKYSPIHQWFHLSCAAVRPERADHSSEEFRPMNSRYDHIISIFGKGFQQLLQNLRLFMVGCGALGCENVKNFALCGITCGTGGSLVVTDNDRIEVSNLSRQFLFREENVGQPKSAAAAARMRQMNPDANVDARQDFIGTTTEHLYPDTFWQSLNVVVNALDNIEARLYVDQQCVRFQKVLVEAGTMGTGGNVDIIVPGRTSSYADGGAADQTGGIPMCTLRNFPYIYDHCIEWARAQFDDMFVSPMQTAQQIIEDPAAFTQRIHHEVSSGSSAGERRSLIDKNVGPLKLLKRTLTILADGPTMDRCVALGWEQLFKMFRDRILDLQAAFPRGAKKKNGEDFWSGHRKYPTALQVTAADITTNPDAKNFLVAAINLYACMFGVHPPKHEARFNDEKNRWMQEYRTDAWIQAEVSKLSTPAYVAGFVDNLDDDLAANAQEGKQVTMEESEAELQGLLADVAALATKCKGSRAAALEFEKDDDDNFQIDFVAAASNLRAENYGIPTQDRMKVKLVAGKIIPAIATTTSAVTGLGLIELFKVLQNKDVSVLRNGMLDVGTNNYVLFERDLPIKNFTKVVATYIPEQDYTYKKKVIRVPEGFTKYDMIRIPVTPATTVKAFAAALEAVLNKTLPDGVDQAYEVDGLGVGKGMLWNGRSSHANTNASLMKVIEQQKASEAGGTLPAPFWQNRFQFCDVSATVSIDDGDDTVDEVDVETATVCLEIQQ
measurement.description: Leishmania donovani Ubiquitin Activating Enzyme (LdE1)
Type: functional
Set-up: scale not given: direction of the effect not stated beside the values
measurement.parameters: 30 µM
Measured potencies and affinities stand elsewhere.
Quick reference for Percent Effect among some compounds
Express the reported value numerically, then name its unit.

INSERT INTO assay_data (compound, endpoint_result) VALUES
  ('COc1cccc(CN2CCCC(Nc3cccc(F)c3)C2)c1O (configuration not stated)', '10.8%'),
  ('O=C1[C@H]2CC[C@H](CN(Cc3ccccc3OC(F)F)C2)N1CC1CC1', '13.5%'),
  ('COc1ccc(CNCc2ccnc(N3CCOCC3)c2)c(OC)c1', '8.11%'),
  ('COCCOc1ccc(NC(=O)C2CCC2)cn1', '17.7%'),
  ('Cc1nc(CNCc2c(C)nn(C)c2N2CCOCC2)cs1', '7.89%');

Now for a further compound.
Task item: Recorded Percent Effect of COc1cccc(CNC(=O)CN2CCCCC2Cn2cccn2)c1 (configuration not stated) , please.
Reply: 5.2%

The origin of these recorded values is ChEMBL document CHEMBL3988442.
